Where do the numbers come from? From PubChem BioAssay (NCI).

- Tested on: OVCAR-8 ovarian
- experiment_summary: NCI-60 one-dose screen, 48 h
- condition_info: 10 µM unless noted
About 83,000 compounds went through this panel and 20% of them were active in at least one assay; those are over-represented in the sample as a whole. Active and inactive are the calls of the source. The calls were made as follows: active = growth percent below 10; inactive = the rest.
Form entry, call: pick from YES for active, NO for inactive

{"sample_smiles": "O=C(NN1C(=O)c2cc(C(=O)O)c(C(=O)O)cc2C1=O)c1ccncc1", "group": "NO"}
{"sample_smiles": "COc1ccc(CNC(=O)c2c(C)n([O-])c3cc(F)c(F)cc3[n+]2=O)cc1", "group": "NO"}
{"sample_smiles": "CCN1CCN(c2nc(NNC(=O)Cc3ccccc3)nc(N3CCN(C(c4ccccc4)c4ccccc4)CC3)n2)CC1", "group": "NO"}

Task: What classification did CSc1nc2nc3c(c(-c4ccc(C)cc4)c2c(=O)[nH]1)CN(C)C/C3=C\c1ccc(C)cc1 end up with in this test?
Result: NO

Task: Assay result, entry COc1c(Br)cc(C(c2cc(Br)c(OC)c(Br)c2)c2ccccc2C(=O)O)cc1Br — outcome?
Result: NO

Task: I'd appreciate the recorded outcome for CN1CCC[C@@H]1CCO[C@](C)(c1ccccc1)c1ccc(Cl)cc1 from this test.
Result: NO

Task: What did this assay record as the result for COc1ccccc1NC(=O)c1sc2nc3c(cc2c1N)C(=O)CCC3 ?
Result: NO

Task: Hey, what did the test say about C/C(=C\CCc1ccoc1)CC/C=C(\C)CCCN1CCOCC1 ?
Result: NO

Task: Fill in: this test's call for COc1cnc2c(c1)C(=O)c1c-2n(CCCNC(C)C)c(=O)c2cc(F)ccc12 is ___
Result: YES

Task: What outcome does the record of this test show for Cc1n(Cc2ccc3ccccc3c2)c2ccccc2[n+]1Cc1ccc2ccccc2c1 ?
Result: YES
